# targetOrSystem: S100B (Homo sapiens, UniProt P04271)
# Construct: made in house; host or cells: Escherichia coli BL21(DE3)
# Sequence (P04271 1-92): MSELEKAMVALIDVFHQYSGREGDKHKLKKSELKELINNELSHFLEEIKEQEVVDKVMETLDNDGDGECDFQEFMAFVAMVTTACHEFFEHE
# methodDescription: Pull-down assay with immobilized protein and LSM libraries
# Type: binding
# conditionInfo: H14 library; 1:1 binding assumed; read-out: Surface mapping KD (apparent)
Returns: string. Value is label 1 if measured Kd is below 80 µM, and label 0 if it is greater than or equal to it.

[[record]]
compound = "CC(C)C[C@@H](CC(=O)N[C@H]1CCCC[C@@H]1C(N)=O)NC(=O)[C@H]1CCCC[C@@H]1NC(=O)[C@H]1CCCC[C@@H]1NC(=O)C[C@H](CC(C)C)NC(=O)[C@H]1CCCC[C@@H]1N [H14 LL]"
discretelabel = "label 1"

[[record]]
compound = "N=C(N)NCCC[C@@H](CC(=O)N[C@H]1CCCC[C@@H]1C(N)=O)NC(=O)[C@H]1CCCC[C@@H]1NC(=O)[C@H]1CCCC[C@@H]1NC(=O)C[C@H](CC(N)=O)NC(=O)[C@H]1CCCC[C@@H]1N [H14 NR]"
discretelabel = "label 0"

[[record]]
compound = "CC(C)[C@@H](CC(=O)N[C@H]1CCCC[C@@H]1C(=O)N[C@H]1CCCC[C@@H]1C(=O)N[C@@H](CCCNC(=N)N)CC(=O)N[C@H]1CCCC[C@@H]1C(N)=O)NC(=O)[C@H]1CCCC[C@@H]1N [H14 VR]"
discretelabel = "label 1"

[[record]]
compound = "CC(C)C[C@@H](CC(=O)N[C@H]1CCCC[C@@H]1C(=O)N[C@H]1CCCC[C@@H]1C(=O)N[C@H](CC(=O)N[C@H]1CCCC[C@@H]1C(N)=O)Cc1ccc(O)cc1)NC(=O)[C@H]1CCCC[C@@H]1N [H14 LY]"
discretelabel = "label 0"

[[record]]
compound = "CC[C@H](C)[C@@H](CC(=O)N[C@H]1CCCC[C@@H]1C(=O)N[C@H]1CCCC[C@@H]1C(=O)N[C@H](CC(=O)N[C@H]1CCCC[C@@H]1C(N)=O)[C@@H](C)O)NC(=O)[C@H]1CCCC[C@@H]1N [H14 IT]"
discretelabel = "label 0"


----------
# targetOrSystem: CaM (Bos taurus)
# Construct: made in house; host or cells: E. coli BL21 (DE3)
# methodDescription: Competition pull-down with native ligand TRPV1-Ct15
# Assay type: binding, bovine
# conditionInfo: H14 library; competitor peptide 200 µM; read-out: Surface mapping KD (apparent), competition
reportedEndpoint: Kd

[[record]]
compound = "NC(=O)[C@H]1CCCC[C@@H]1NC(=O)C[C@H](Cc1ccccc1)NC(=O)[C@H]1CCCC[C@@H]1NC(=O)[C@H]1CCCC[C@@H]1NC(=O)C[C@H](CC(=O)O)NC(=O)[C@H]1CCCC[C@@H]1N [H14 DF]"
result = "220 µM"

[[record]]
compound = "CSCC[C@@H](CC(=O)N[C@H]1CCCC[C@@H]1C(=O)N[C@H]1CCCC[C@@H]1C(=O)N[C@@H](CO)CC(=O)N[C@H]1CCCC[C@@H]1C(N)=O)NC(=O)[C@H]1CCCC[C@@H]1N [H14 MS]"
result = "431 µM"

[[record]]
compound = "NCCCC[C@@H](CC(=O)N[C@H]1CCCC[C@@H]1C(=O)N[C@H]1CCCC[C@@H]1C(=O)N[C@H](CC(=O)N[C@H]1CCCC[C@@H]1C(N)=O)Cc1ccccc1)NC(=O)[C@H]1CCCC[C@@H]1N [H14 KF]"
result = "339 µM"

[[record]]
compound = "CC(C)[C@@H](CC(=O)N[C@H]1CCCC[C@@H]1C(N)=O)NC(=O)[C@H]1CCCC[C@@H]1NC(=O)[C@H]1CCCC[C@@H]1NC(=O)C[C@H](CCC(=O)O)NC(=O)[C@H]1CCCC[C@@H]1N [H14 EV]"
result = "492 µM"

[[record]]
compound = "C[C@@H](CC(=O)N[C@H]1CCCC[C@@H]1C(N)=O)NC(=O)[C@H]1CCCC[C@@H]1NC(=O)[C@H]1CCCC[C@@H]1NC(=O)C[C@H](CCCNC(=N)N)NC(=O)[C@H]1CCCC[C@@H]1N [H14 RA]"
result = "449 µM"

[[record]]
compound = "CC[C@H](C)[C@@H](CC(=O)N[C@H]1CCCC[C@@H]1C(N)=O)NC(=O)[C@H]1CCCC[C@@H]1NC(=O)[C@H]1CCCC[C@@H]1NC(=O)C[C@H](CC(N)=O)NC(=O)[C@H]1CCCC[C@@H]1N [H14 NI]"
result = "283 µM"

[[record]]
compound = "C[C@@H](O)[C@@H](CC(=O)N[C@H]1CCCC[C@@H]1C(=O)N[C@H]1CCCC[C@@H]1C(=O)N[C@@H](CCCCN)CC(=O)N[C@H]1CCCC[C@@H]1C(N)=O)NC(=O)[C@H]1CCCC[C@@H]1N [H14 TK]"
result = "485 µM"

[[record]]
compound = "CC[C@H](C)[C@@H](CC(=O)N[C@H]1CCCC[C@@H]1C(N)=O)NC(=O)[C@H]1CCCC[C@@H]1NC(=O)[C@H]1CCCC[C@@H]1NC(=O)C[C@@H](NC(=O)[C@H]1CCCC[C@@H]1N)[C@@H](C)CC [H14 II]"
result = "280 µM"

[[record]]
compound = "NC(=O)C[C@@H](CC(=O)N[C@H]1CCCC[C@@H]1C(=O)N[C@H]1CCCC[C@@H]1C(=O)N[C@@H](CO)CC(=O)N[C@H]1CCCC[C@@H]1C(N)=O)NC(=O)[C@H]1CCCC[C@@H]1N [H14 NS]"
result = "279 µM"

[[record]]
compound = "CSCC[C@@H](CC(=O)N[C@H]1CCCC[C@@H]1C(=O)N[C@H]1CCCC[C@@H]1C(=O)N[C@H](CC(=O)N[C@H]1CCCC[C@@H]1C(N)=O)Cc1ccccc1)NC(=O)[C@H]1CCCC[C@@H]1N [H14 MF]"
result = "133 µM"

[[record]]
compound = "NC(=O)C[C@@H](CC(=O)N[C@H]1CCCC[C@@H]1C(=O)N[C@H]1CCCC[C@@H]1C(=O)N[C@H](CC(=O)N[C@H]1CCCC[C@@H]1C(N)=O)Cc1c[nH]c2ccccc12)NC(=O)[C@H]1CCCC[C@@H]1N [H14 NW]"
result = "269 µM"

[[record]]
compound = "CC(C)C[C@@H](CC(=O)N[C@H]1CCCC[C@@H]1C(N)=O)NC(=O)[C@H]1CCCC[C@@H]1NC(=O)[C@H]1CCCC[C@@H]1NC(=O)C[C@H](Cc1ccc(O)cc1)NC(=O)[C@H]1CCCC[C@@H]1N [H14 YL]"
result = "428 µM"

[[record]]
compound = "NC(=O)[C@H]1CCCC[C@@H]1NC(=O)C[C@H](Cc1c[nH]c2ccccc12)NC(=O)[C@H]1CCCC[C@@H]1NC(=O)[C@H]1CCCC[C@@H]1NC(=O)C[C@H](Cc1ccccc1)NC(=O)[C@H]1CCCC[C@@H]1N [H14 FW]"
result = "118 µM"

[[record]]
compound = "NC(=O)CC[C@@H](CC(=O)N[C@H]1CCCC[C@@H]1C(=O)N[C@H]1CCCC[C@@H]1C(=O)N[C@@H](CCC(=O)O)CC(=O)N[C@H]1CCCC[C@@H]1C(N)=O)NC(=O)[C@H]1CCCC[C@@H]1N [H14 QE]"
result = "246 µM"

[[record]]
compound = "CSCC[C@@H](CC(=O)N[C@H]1CCCC[C@@H]1C(N)=O)NC(=O)[C@H]1CCCC[C@@H]1NC(=O)[C@H]1CCCC[C@@H]1NC(=O)C[C@H](CCSC)NC(=O)[C@H]1CCCC[C@@H]1N [H14 MM]"
result = "448 µM"

[[record]]
compound = "CC(C)[C@@H](CC(=O)N[C@H]1CCCC[C@@H]1C(N)=O)NC(=O)[C@H]1CCCC[C@@H]1NC(=O)[C@H]1CCCC[C@@H]1NC(=O)C[C@H](CO)NC(=O)[C@H]1CCCC[C@@H]1N [H14 SV]"
result = "398 µM"

[[record]]
compound = "N=C(N)NCCC[C@@H](CC(=O)N[C@H]1CCCC[C@@H]1C(N)=O)NC(=O)[C@H]1CCCC[C@@H]1NC(=O)[C@H]1CCCC[C@@H]1NC(=O)C[C@H](CCC(N)=O)NC(=O)[C@H]1CCCC[C@@H]1N [H14 QR]"
result = "291 µM"

[[record]]
compound = "C[C@@H](O)[C@@H](CC(=O)N[C@H]1CCCC[C@@H]1C(=O)N[C@H]1CCCC[C@@H]1C(=O)N[C@@H](CCC(=O)O)CC(=O)N[C@H]1CCCC[C@@H]1C(N)=O)NC(=O)[C@H]1CCCC[C@@H]1N [H14 TE]"
result = "281 µM"

